B1: tRNA (parent)
chain: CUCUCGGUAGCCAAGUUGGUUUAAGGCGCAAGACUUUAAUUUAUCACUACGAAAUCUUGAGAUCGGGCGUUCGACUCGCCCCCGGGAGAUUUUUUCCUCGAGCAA

- Variants of: B1
- method.notes: nonsense suppression (GFP-seq) (ratio to wild type); higher = more function; SUP4oc tRNA, yeast GFP reporter sort-seq
Fewer inactive variants are shown than the library holds.
Let's look at some variants and their measured nonsense suppression.
Reply briefly: the number, and no unit.

Previously resolved entries follow.
{"polymer.sequence": "CUCUCGGUAGCCCAGUUGGUUUAAGGCGCAAGACUUUAAUUUAUCACUACGAAAUCUUGAGAUCGGGCGUUCGACUCGCCCCCGGGCGAUUUUUUCCUCGAGCAA", "nonsense suppression": 0.0539}
{"polymer.sequence": "CUCUCGGUAGCCAAGUCGGUUUAAGGCCCAAGACUUUAAUUUAUCACUACGAAUUCUUGAGAUCGGGCGUUCGACUCGCCCCCGGGAGAUUUUUUCCUCGAGCAA", "nonsense suppression": 0.219}
{"polymer.sequence": "CUCUCGGUAGCCUAGUUGGUUUAAGGCGUAAGACUUUAAUUUAUCACUACGAAAUCUUGAGAUCGGGCGUUCGACUCGCCCCCGGGAGAUUUUUUCCUCGAGCAA", "nonsense suppression": 0.751}
{"polymer.sequence": "CUCUCGGUAGCCAAGUUGGUUGAAGGCGCUAGACUUUAAUUUAUCACUACGAAAUCUUGAGAUCGGGCGUUCGACUCGCCCCCGGGAGAUUUUUUCCUCGAGCAA", "nonsense suppression": 0.184}

Req: Tell me its nonsense suppression given "CUCUCGGUAGCCAAGUUGGUUUAAGGCGCAAGACUUUAAUUUAUCACUACGAAAUCUUGAGAUCGGGCGUUCGAUGCGCCCCCGGGAGAUUUUUUCCUCGAGCAA" as the entry.
Resp: 0.172

Req: Hello, please tell me recorded nonsense suppression for this one: "CUCUCGGUAGCCAAGUUGGUUUAAGGCGCAAGACUUUAAUUUAUCACUACGAACUCUUGAGAUCGGGCGUUCGACUCGCCCCCGGCAGAUUUUUUCCUCGAGCAA"
Resp: 0.0725

Hello, the source for this data is the RNAGym collection of RNA variant scans (doi:10.1101/gad.245936.114), in case you need it.
